assay: In vivo pharmacokinetic study; settings: mouse; Brain, 10 mg/kg intravenous, mice
property: Tmax (min)
Please give a number only; it is taken to be in min.

Sample CN(C)c1ccc(-c2ccc(-c3nc4ccc(NCCCCCOc5ccc6c(c5)CN(C5CCC(=O)NC5=O)C6=O)cc4s3)c(C(F)(F)F)c2)cn1 (stereo not shown) ; Tmax observed: 30
